// data source = patent US20160264674A1

test_target: T1, FLAG-tagged human APRIL (human, UniProt O75888 105-250, limits assumed)
T1 construct: also called FLAG-tagged APRIL; FLAG-APRIL; not shown: FLAG tag
T1 sequence (looked up): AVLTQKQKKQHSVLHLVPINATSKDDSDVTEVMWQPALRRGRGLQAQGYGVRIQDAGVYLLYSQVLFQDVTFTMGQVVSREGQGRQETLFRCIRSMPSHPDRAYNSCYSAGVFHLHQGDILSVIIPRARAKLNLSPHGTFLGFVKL
experiment_summary: FLAG-APRIL ELISA after 10 min at 65 °C, antibody at 0.316 µg/ml
attribute_measured: % residual binding after heat treatment (room temperature = 100%)
One number for each entry, in %.

| binder | readout_value |
| --- | --- |
| VH14_1E.VL15 (antibody, human IgG4, V domains shown, VH14_1 with Q1E; Rest is human IgG4 (S241P, Kabat) and human kappa; also called 14_1E.15) VH: EVQLVQSGAEVKKPGASVKVSCKASGYTFTSYVMHWVRQAPGQGLEWMGYINPYNDAPKYNEKFKGRVTMTSDTSASTAYMELSSLRSDDTAVYYCARGLGYALYYAMDYWGQGTTVTVSS VL: DIVMTQSPSTLSASVGDRVTITCKASQNVGNNVAWYQQKPGKAPKLLISSASNRDSGVPSRFSGSGSGTEFTLTISSLQPDDFATYFCQQYNIYPFTFGQGTKLEIK | 52 |
| VH14_1C.VL15 (antibody, human IgG4, V domains shown, VH14_1 with M70I; Rest is human IgG4 (S241P, Kabat) and human kappa; also called 14_1C.15) VH: QVQLVQSGAEVKKPGASVKVSCKASGYTFTSYVMHWVRQAPGQGLEWMGYINPYNDAPKYNEKFKGRVTITSDTSASTAYMELSSLRSDDTAVYYCARGLGYALYYAMDYWGQGTTVTVSS VL: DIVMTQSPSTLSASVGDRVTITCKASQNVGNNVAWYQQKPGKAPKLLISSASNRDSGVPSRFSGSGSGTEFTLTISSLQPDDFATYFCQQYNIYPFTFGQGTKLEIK | 59.1 |
| VH14.VL15 (antibody, human IgG4 S228P, kappa, V domains shown, Humanized IgG4 (S241P, Kabat) with human kappa, from HEK293T) VH: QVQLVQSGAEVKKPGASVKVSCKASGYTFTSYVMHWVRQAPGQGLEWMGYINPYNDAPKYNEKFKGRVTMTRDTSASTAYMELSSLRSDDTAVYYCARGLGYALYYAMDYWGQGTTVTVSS VL: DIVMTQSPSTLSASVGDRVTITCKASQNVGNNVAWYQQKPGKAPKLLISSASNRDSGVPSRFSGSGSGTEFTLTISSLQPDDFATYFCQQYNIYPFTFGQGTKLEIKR | 67.5 |

Now consider the entry below.
Give the reported value of % residual binding after heat treatment (room temperature = 100%) for this record: VH14_1G.VL15 (antibody, human IgG4 S228P, kappa, V domains shown, VH14_1 with R67K and V68A; Humanized IgG4 (S241P, Kabat) with human kappa; also called 14_1G.15; 14_1 G.15) VH: QVQLVQSGAEVKKPGASVKVSCKASGYTFTSYVMHWVRQAPGQGLEWMGYINPYNDAPKYNEKFKGKATMTSDTSASTAYMELSSLRSDDTAVYYCARGLGYALYYAMDYWGQGTTVTVSS VL: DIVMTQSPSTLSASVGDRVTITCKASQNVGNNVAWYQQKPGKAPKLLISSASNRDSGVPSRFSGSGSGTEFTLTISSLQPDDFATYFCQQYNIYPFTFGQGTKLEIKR
34.2
